Protocol text: Biodistribution of technetium-labelled peptides
Format: in vivo, CD1 mice
Condition: CD1, liver, iv, 80 ug/mouse, total radioactivity; 80 μg/mouse; 1 hour; read-out: injected activity in Liver
Measurement name: tissue uptake at 1 h (%ID/g)
// units = %ID/g; emit number, no label

Memo: CSCC[C@H](NC(=O)[C@H](Cc1ccccc1)NC(=O)[C@H](CC(C)C)NC(=O)[C@H](CCCCN)NC(=O)CCCN(CCN)CCn1nc(C)c(CC(=O)O)c1C)C(=O)N[C@@H](C)C(=O)N[C@@H](CC(C)C)C(=O)N[C@H](C(=O)N[C@@H](C)C(=O)N[C@@H](Cc1ccccc1)C(=O)N[C@@H](CC(C)C)C(=O)N[C@@H](CCCNC(=N)N)C(=O)N[C@@H](Cc1ccccc1)C(=O)N[C@@H](CC(C)C)C(=O)N[C@H](C(=O)O)[C@@H](C)O)C(C)C [^99mTc(CO)3-Pz^1-pepH2, metal not drawn] , reported tissue uptake at 1 h: 21.7

----------
System: in vitro model of the BBB (bEnd3 cells)
Protocol text: Transmigration of radiolabelled peptides across in vitro BBB model
Type: in vitro ADME
Condition: GaCl3; 0.25 hours
Measurement name: BBB transmigration (%)
// units = %; emit number, no label

Memo: VQQLTKRFSL (Dengue virus 2; /note=“#PepH1”) , reported BBB transmigration: 1.13

Memo: KLFMALVAFLRFLT [PepH2] , reported BBB transmigration: 0.33

Memo: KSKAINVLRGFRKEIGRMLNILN [PepH4] , reported BBB transmigration: 0.93

Memo: AGILKRW (Dengue virus 2; /note=“#PepH3 (PEP+)”) , reported BBB transmigration: 1.87

----------
Protocol text: Biodistribution of technetium-labelled peptides
Format: in vivo, CD1 mice
Condition: CD1, lung, iv, 80 ug/mouse, total radioactivity; 80 μg/mouse; 1 hour; read-out: injected activity in Lung
Description: To evaluate the capacity to cross the BBB in vivo, the selected peptides, pepH1 and pepH3, were analyzed for biodistribution in CD1 mice. The peptides were labelled with technetium at a final concentration of 8.5×10^−5 M and diluted in PBS. CD1 mice were injected (iv injection, tail vein). […] The tissues of interest were dissected and washed to remove excess blood, weighed, and measured for radioactivity. Technetium radioactivity of the different peptides was measured for different organs. […]
Measurement name: tissue uptake at 1 h (%ID/g)
// units = %ID/g; emit number, no label

Memo: CSCC[C@H](NC(=O)[C@H](Cc1ccccc1)NC(=O)[C@H](CC(C)C)NC(=O)[C@H](CCCCN)NC(=O)CCCN(CCN)CCn1nc(C)c(CC(=O)O)c1C)C(=O)N[C@@H](C)C(=O)N[C@@H](CC(C)C)C(=O)N[C@H](C(=O)N[C@@H](C)C(=O)N[C@@H](Cc1ccccc1)C(=O)N[C@@H](CC(C)C)C(=O)N[C@@H](CCCNC(=N)N)C(=O)N[C@@H](Cc1ccccc1)C(=O)N[C@@H](CC(C)C)C(=O)N[C@H](C(=O)O)[C@@H](C)O)C(C)C [^99mTc(CO)3-Pz^1-pepH2, metal not drawn] , reported tissue uptake at 1 h: 51.4

----------
So I've got a bunch of substances here, and I need their Internalization values.
Test system: bEnd3 cells
Protocol text: Uptake test: cellular interaction (acid wash) and internalization (lysate)
Format: cell-based
Condition: 99mTc; 5 hours
// units = %; emit number, no label

Memo: VQQLTKRFSL (Dengue virus 2; /note=“#PepH1”) , reported Internalization: 0.10

Memo: KLFMALVAFLRFLT [PepH2] , reported Internalization: 24.8

Memo: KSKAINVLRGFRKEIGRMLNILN [PepH4] , reported Internalization: 1.53

Memo: AGILKRW (Dengue virus 2; /note=“#PepH3 (PEP+)”) , reported Internalization: 0.15
